As shown below, each of these sequences has a reported sensor-assay potency score (higher = more potent) value.
Molecular target: PRUNE
Assay: pooled miR-30 sensor sort-seq; sequence = guide strand; further: reference of the scale not given here
Conditions: shRNA
observed.property: sensor-assay potency score (higher = more potent)

sequence.content | recorded.measurement
TTTCTTTCGAGAGACCTGGGTG | -0.0186
TAGAGGTCGGGACTCCTGCAGA | -0.699
TATAGATAGTCTTCTGGTCTTT | -0.453
TTTCTCTCTAGCTTGAGGCAGG | -0.511
TTACCTTCCACATAGCTACAGA | -0.331
TTTATGAGAACAGTATACCAGA | -0.563

---

Biological target: EPHA6
Assay: pooled miR-30 sensor sort-seq; sequence = guide strand
Details: shRNA
observed.property: sensor-assay potency score (higher = more potent)

sequence.content | recorded.measurement
TTTCTGACTGTAGCCACTGTAT | -1.06
TTTCTTACAGATTACACTGTAT | -0.425
TATCAAGCAACACAACTTGGTT | -0.642
TTCCATTACATTACATACCTGG | 0.0947
TTGGCTTGAATTTAATTCCGTG | 0.00331
TTCAGCTCGGAAATAACCCTTT | -0.23

---

As shown below, each of these sequences has a reported sensor-assay potency score (higher = more potent) value.
Target: HS3ST4
Test: pooled miR-30 sensor sort-seq; sequence = guide strand
Conditions: shRNA
observed.property: sensor-assay potency score (higher = more potent)

sequence.content | tgt | recorded.measurement
TAAAACATCAAGTTGAAGGGTT | HS3ST4 | 0.47
TTTCTTTGACAGTGTCTGCGTG | HS3ST4 | -0.405
TTTTACTAGAACAATTCCTGGT | HS3ST4 | 0.147
TTCTTTGACAGTGTCTGCGTGT | HS3ST4 | 0.364
TTTGTCACAAAGTAACTTGGAG | HS3ST4 | -0.0205
TGAGCCGTGATCATCTCGCTGG | HS3ST4 | -0.131
TTCTGTACCACTCCAACCCCTT | HS3ST4 | -0.516
TTTGAGGCCTAGAAAATCCTGT | HS3ST4 | 0.0519
TTTGTTGAAATAGAAATGCTTC | HS3ST4 | -0.152

---

Target: MYST1
Assay: pooled miR-30 sensor sort-seq; sequence = guide strand
Conditions: shRNA
observed.property: sensor-assay potency score (higher = more potent)

sequence.content | recorded.measurement
TACTTGACCATATTGAGGGATT | -1.22
TTTGAGGTGCTCCTCCACCAGC | -1.45
TTGGTTGCGAGTGATCTTGCGC | -0.436
TTGATGGACAGTGTGCCCCGGA | -0.00673
TTGCGGTAGATCTCTTTCCCGG | -0.991
TATTTCATGTACTTGAGGCAGT | 0.803
TACTTGAGGCAGTACTCGCAGA | -0.834

---

Target: HIST2H3A
Assay: pooled miR-30 sensor sort-seq; sequence = guide strand
Conditions: shRNA
observed.property: sensor-assay potency score (higher = more potent)

sequence.content | recorded.measurement
TTGGGCATAATGGTCACGCGCT | -0.549
TTCGTGTCTTCGAACAGCCCCA | -0.563
TGGCGCACAGGTTCGTGTCTTC | -0.891
TGGATGGCGCACAGGTTCGTGT | -1.93
TTAAAGTCCTGCGCGATCTCGC | -0.191
TTGCCGCCGGTCGACTTGCGAG | -1.63
TCCGTCTTAAAGTCCTGCGCGA | -1.2
TGGACTTCTGGTAGCGCCGGAT | -1.34
TAATGGTCACGCGCTTGGCGTG | -1.65

---

Molecular target: SECISBP2L
Assay: pooled miR-30 sensor sort-seq; sequence = guide strand
Settings: shRNA
Would you mind labelling by sensor-assay potency score (higher = more potent)? At or over -0.03 is Criterion met, under is Criterion not met.

sequence.content | class.label
TAGCTGAGGTAGTACTGCCTGT | Criterion not met
TATAACATTATAGAGAGCCTCA | Criterion not met
TACGCTAACAGGAACCAGCTTG | Criterion not met
TTTCTGAATACTCTTGAGCTGT | Criterion not met
TTCCTGGGAAACAATCTCCTGT | Criterion met
TTGCTGTGAAGCATCTACCAGA | Criterion not met
TTGAAACCCATCTTCATCCTGT | Criterion met

---

Target: BARX2
Assay: pooled miR-30 sensor sort-seq; sequence = guide strand
Conditions: shRNA
As shown below, each of these sequences has a reported sensor-assay potency score (higher = more potent) value.
observed.property: sensor-assay potency score (higher = more potent)

sequence.content | recorded.measurement
TTGACAAATACTTCTGCTTCTG | -0.22
TAATCGCAGGTCTCCTTGGAGA | -1.07
TCAGCTTCAATCTCTTCTGATG | -1.18
TCCGTCTCTGACTCGCTGCTGG | -0.99
TCGTCGATCATGAAAGTCTTGT | -0.832

---

Target: ACSM2B
Test: pooled miR-30 sensor sort-seq; sequence = guide strand
Details: shRNA
As shown below, each of these sequences has a reported sensor-assay potency score (higher = more potent) value.
observed.property: sensor-assay potency score (higher = more potent)

sequence.content | recorded.measurement
TTGGGTACTTGTATGGGGCTGT | 0.442
TTGGTTCGTTGAATTTTCCCTG | 0.266
TATCTTTCTTGGGTACTTGTAT | -0.285
TGACTTCACATGCTGCTGCAGC | -0.423
TCCTGCTGTAGCAACATCCGGT | -0.567
TTTCATTGTCTTGGAAACCATG | -1.14
TAAACTGGAAATACCCATCTTC | 0.528
TTAATGATATCATCTGCCCGTC | -0.544
TTGGCTGCTGTCTTGTCGGGAT | -0.364
TTTCTCAGACACCAGTAGCTTA | -0.818

---

Molecular target: TSPYL2
Test: pooled miR-30 sensor sort-seq; sequence = guide strand
Conditions: shRNA
observed.property: sensor-assay potency score (higher = more potent)

sequence.content | tgt | recorded.measurement
TCATTGTCACTGTCGCTGCTGT | TSPYL2 | -0.335
ATTGTCTTCAGGATTCTCGTTG | TSPYL2 | -0.109
TTGTGGTCAGGATTCTCGCTGT | TSPYL2 | -0.451
TTGACAATCACCATGTTTGTGA | TSPYL2 | 0.272
TCTCTGTCGTCATCATCGCTGC | TSPYL2 | -0.7
ATGTCTGAGATCCTGTACCTGC | TSPYL2 | -1.08

---

Molecular target: GFPT2
Test: pooled miR-30 sensor sort-seq; sequence = guide strand
Conditions: shRNA
Reported sensor-assay potency score (higher = more potent) maps to class as: bottom (below -0.8), middle (-0.8 to below -0.06), top (-0.06 or more)

sequence.content | class.label
TTGGTTTCAAAATTCACCCGAC | top
TTTGTAAAGTTCTTCATCGAGA | middle
TTGACTTCGTGATTATTCCCAT | middle
TTCGTGATTATTCCCATCGATC | bottom
TTTAAAACTAACTCTAGTGTTG | middle
TTCTCCAGAGTGCACGTCCTGT | bottom
TTGTCTTTTAAAACTAACTCTA | middle
TTGACCAGCTGAATGTGTCTTT | top

---

Target: BIRC8
Assay: pooled miR-30 sensor sort-seq; sequence = guide strand
Settings: shRNA
observed.property: sensor-assay potency score (higher = more potent)

sequence.content | recorded.measurement
TTGCTTGAAATCAATAACCGCG | 0.0701
TAGTTTGTACCAGAGCTCCCTC | -0.717
TGCAACAAGAACCTCAAGCGTT | -0.815
TAGATCTGCAACAAGAACCTCA | 0.199
TCTTCTAGCAGATATTTGCAAC | -1.19
TTTCTGTAGTGTCTTTCTGAGC | -1.49
TTGTTAACGGAGTACATCCATG | -1.22
TCGTATAGCTTCTTGTAGCATA | -0.43

---

Target: EGF
Test: pooled miR-30 sensor sort-seq; sequence = guide strand
Conditions: shRNA
observed.property: sensor-assay potency score (higher = more potent)

sequence.content | recorded.measurement
TTAGATCAACTTCACCACCTGC | -0.392
AAACAAGTTGATGACATCGTTT | -0.985
TAAATTTTGAAACTACTGGCAA | -0.0191
TTACTTACAATCTTGTAACTGA | 0.581
TTACATACTCTCTCTTGCCTTG | -0.0399
TTAATTCTAACCATGTCCTTTC | -0.226
TTCTCTGTTGTACTGAATCCAA | -0.8
TTCATTAACATCTTCACAGTAC | 0.809
TTGACCAAATAACTTCTTCATT | -1.32
TAAACCTTTCTACTGGATCAAC | -1.16
TTAGTGATTATTTTGGAACGTT | 0.208
TATCAGAACATAGTTTTCCATC | -1.09
TCTTCTGACACTCTAGTCTTGG | -0.41
TAATGTGGACAGAACCTCCATC | -0.544
